test: human plasma protein binding (PPB) assay; format: in vitro ADME; settings: average, read-out: Human Plasma Protein Binding % Bound Avg (converted)
Measured fraction unbound accompanies every entry in the list below.
Measure name: fraction unbound

Compound	Measure name	Result
CS(=O)(=O)c1ccc(-c2cc(F)cc(NCc3ccoc3)n2)cc1	fraction unbound	0.027
COc1ncc(NCc2cccs2)nc1-c1ccc(S(C)(=O)=O)cc1	fraction unbound	0.016
Cc1occc1CNc1cccc(-c2ccc(S(C)(=O)=O)cc2)n1	fraction unbound	0.026
CS(=O)(=O)c1ccc(-c2cccc(NCc3ccoc3)n2)cc1	fraction unbound	0.071
CS(=O)(=O)c1ccc(-c2cccc(OCc3cccs3)n2)cc1	fraction unbound	0.002

---

assay: Mouse Microsome Stability; format: in vitro ADME; details: mouse microsomes
We label by threshold. Values of Mouse Microsome Stability % Remaining Avg strictly beneath 4% are 1. Values of 4% and up are 0.

Molecule	Answer label
CS(=O)(=O)c1ccc(-c2cncc(NCc3cccs3)n2)cc1 [Compound 98]	1
COc1ncc(NCc2cccs2)nc1-c1ccc(S(C)(=O)=O)cc1 [Compound 29]	0
CS(=O)(=O)c1ccc(-c2cncc(NCc3cccs3)n2)cn1 [Compound 141]	0
CS(=O)(=O)c1ccc(-c2cncc(NCc3ccc(F)cc3)n2)cc1 [Compound 96]	0
CS(=O)(=O)c1ccc(-c2cncc(NCc3ccco3)n2)cc1 [Compound 120]	1

---

Measured COX2 2 minutes pge2/pge2d4 area ratio Avg. LLE accompanies every entry in the list below.
target: human recombinant COX2 (hCOX2); assay: LCMS-based COX2 enzymatic inhibition assay (PGE2 quantification); format: biochemical; set-up: COX2 2 minutes pge2/pge2d4 area ratio Avg; other: 2 minutes; readout pge2/pge2d4 area ratio; average; COX2 2 minutes pge2/pge2d4 area ratio Avg; LLE; average LLE; COX2 2 minutes pge2 area (counts) Avg; readout pge2 area (counts); other: 2 min; "ovine COX2 (oCOX2), human recombinant COX2 (hCOX2)"; details: 2 minutes; readout pge2/pge2d4 area ratio; average LLE
Measure name: COX2 2 minutes pge2/pge2d4 area ratio Avg. LLE

Compound	Result
CS(=O)(=O)c1ccc(-c2ccc3cnn(Cc4cccs4)c3n2)cc1	3.897
CS(=O)(=O)c1ccc(-c2cc(S(C)(=O)=O)cc(NCc3cccs3)n2)cc1	2.624
CS(=O)(=O)c1ccc(-c2cncc(NCc3ncc[nH]3)n2)cc1	4.334
CS(=O)(=O)c1ccc(-c2cnc(C(N)=O)c(NCc3cccs3)n2)cc1	4.686
CN1CCN(c2cncc(-c3ccc(S(C)(=O)=O)cc3)n2)CC1	5.044

---

molecular target: human recombinant COX2 (hCOX2); assay: LCMS-based COX2 enzymatic inhibition assay (PGE2 quantification); type: biochemical; parameters: COX2 2 minutes pge2/pge2d4 area ratio Avg; other: 2 minutes; readout pge2/pge2d4 area ratio; average; COX2 2 minutes pge2/pge2d4 area ratio Avg; LLE; average LLE; COX2 2 minutes pge2 area (counts) Avg; readout pge2 area (counts); other: 2 min; "ovine COX2 (oCOX2), human recombinant COX2 (hCOX2)"; conditions: 2 minutes; readout pge2/pge2d4 area ratio; average LLE
Assign t to entries whose COX2 2 minutes pge2/pge2d4 area ratio Avg. LLE meets or exceeds 4; assign f to the rest.

Compound	Answer label
COc1ncc(NCc2cnco2)nc1-c1ccc(S(C)(=O)=O)cc1	t
CS(=O)(=O)c1ccc(-c2cncc(OCc3cccs3)c2)cc1	f
COc1ncc(NCc2ccns2)nc1-c1ccc(S(C)(=O)=O)cc1	t
CC(=O)c1ncc(NCc2cccs2)nc1-c1ccc(S(C)(=O)=O)cc1	f
CS(=O)(=O)c1ccc(-c2cncc(NCc3cccs3)n2)nc1	t
Cn1ccc(CNc2cccc(-c3ccc(S(C)(=O)=O)cc3)n2)n1	t
CN(C)c1cncc(-c2ccc(S(C)(=O)=O)cc2)n1	t
CC(=O)c1ncc(-c2ccc(S(C)(=O)=O)cc2)nc1NCc1cccs1	f
COc1ncc(NCc2sccc2C)nc1-c1ccc(S(C)(=O)=O)cc1	t

---

biological target: human recombinant COX2 (hCOX2) (UniProt P35354); test: LCMS-based COX2 enzymatic inhibition assay (PGE2 quantification); assay type: biochemical; parameters: COX2 2 minutes pge2/pge2d4 area ratio Avg; other: 2 minutes; readout pge2/pge2d4 area ratio; average; COX2 2 minutes pge2/pge2d4 area ratio Avg; LLE; average LLE; COX2 2 minutes pge2 area (counts) Avg; readout pge2 area (counts); other: 2 min; "ovine COX2 (oCOX2), human recombinant COX2 (hCOX2)"; conditions: 2 minutes; readout pge2 area (counts); average LLE
Assign met to entries whose COX2 2 minutes pge2 area (counts) Avg. LLE meets or exceeds 3; assign not met to the rest.

Compound	Answer label
CS(=O)(=O)c1ccc(-c2cc(F)cc(NCc3ccoc3)n2)cc1	met
CS(=O)(=O)c1ccc(-c2cccc([C@H](O)Cc3cccs3)n2)cc1	not met
COc1ncc(NCc2cccs2)cc1-c1ccc(S(C)(=O)=O)cc1	not met
CSc1ccc(-c2cncc(NCc3cccs3)n2)cc1	met
CS(=O)(=O)c1ccc(-c2cncc(N3CCCCC3)n2)cc1	met

---

target: ovine COX-1 (oCOX-1) (Ovis aries); construct: purchased Cayman Chemicals (Ann Arbor, Mich.); test: LCMS-based COX-1 enzymatic inhibition assay (PGE2 quantification); format: biochemical; conditions: 10 minutes; pge2/pge2d4 area ratio; head of this section not shown, inferred
Sequence (P05979 25-600): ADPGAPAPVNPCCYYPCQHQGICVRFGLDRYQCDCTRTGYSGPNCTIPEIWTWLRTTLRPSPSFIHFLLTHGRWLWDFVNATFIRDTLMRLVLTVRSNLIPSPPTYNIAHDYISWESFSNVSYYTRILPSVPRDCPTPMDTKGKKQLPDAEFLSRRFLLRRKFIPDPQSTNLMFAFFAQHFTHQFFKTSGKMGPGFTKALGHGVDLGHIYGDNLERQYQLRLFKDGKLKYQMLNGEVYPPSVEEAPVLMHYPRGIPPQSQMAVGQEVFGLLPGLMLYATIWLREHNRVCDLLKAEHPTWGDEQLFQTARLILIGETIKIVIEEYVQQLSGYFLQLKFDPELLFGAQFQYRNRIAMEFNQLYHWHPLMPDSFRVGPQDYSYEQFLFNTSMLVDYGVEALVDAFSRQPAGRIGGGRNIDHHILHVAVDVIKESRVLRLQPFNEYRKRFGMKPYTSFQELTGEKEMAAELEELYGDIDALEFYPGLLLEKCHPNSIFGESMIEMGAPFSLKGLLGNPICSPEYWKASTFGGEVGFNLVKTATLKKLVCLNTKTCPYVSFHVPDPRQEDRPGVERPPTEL
Measure name: COX1 10 minutes pge2/pge2d4 area ratio Avg. LLE

Compound	Result
CS(=O)(=O)c1ccc(-c2ccc3ccn(Cc4ccco4)c3n2)cc1	0.214
CS(=O)(=O)c1ccc(-c2cc3ccoc3c(NCc3cccs3)n2)cc1	0.3787
CS(=O)(=O)c1ccc(-c2nc(NCc3cccs3)cnc2C(F)(F)F)cc1	1.461
CS(=O)(=O)c1ccc(-c2cncc(NCc3cccs3)n2)cc1	2.943
Cc1coc(CNc2cccc(-c3ccc(S(C)(=O)=O)cc3)n2)c1	1.134
CS(=O)(=O)c1ccc(-c2cccc(NCc3ccns3)n2)cc1	1.97
CS(=O)(=O)c1ccc(-c2cccc(NCc3ccc[nH]3)n2)cc1	2.183
CS(=O)(=O)c1ccc(-n2ccc3ccc(NCc4cccs4)nc32)cc1	−0.196
CS(=O)(=O)c1ccc(-c2cccc(NCc3cccs3)n2)cn1	1.754

---

Measured COX2 2 minutes pge2 area (counts) Avg. LLE accompanies every entry in the list below.
molecular target: human recombinant COX2 (hCOX2); assay: LCMS-based COX2 enzymatic inhibition assay (PGE2 quantification); assay type: biochemical; parameters: COX2 2 minutes pge2/pge2d4 area ratio Avg; other: 2 minutes; readout pge2/pge2d4 area ratio; average; COX2 2 minutes pge2/pge2d4 area ratio Avg; LLE; average LLE; COX2 2 minutes pge2 area (counts) Avg; readout pge2 area (counts); other: 2 min; "ovine COX2 (oCOX2), human recombinant COX2 (hCOX2)"; settings: 2 minutes; readout pge2 area (counts); average LLE
Measure name: COX2 2 minutes pge2 area (counts) Avg. LLE

Molecule	Result
CS(=O)(=O)c1ccc(-c2cncc(NCc3ccc(F)cn3)n2)cc1	4.735
CS(=O)(=O)c1ccc(-c2cncc(OC[C@H]3CCCS3)n2)cc1 (single isomer, unassigned)	4.04
CS(=O)(=O)c1ccc(-c2cnnc(OCc3ccco3)c2)cc1	3.485
CS(=O)(=O)c1ccc(-c2cncc(SCc3cnoc3)n2)cc1	4.663
COCc1ccc(NCc2cccs2)nc1-c1ccc(S(C)(=O)=O)cc1	3.594
CS(=O)(=O)c1ccc(-c2cncc(NC34CC5CC(CC(C5)C3)C4)n2)cc1	2.394
CS(=O)(=O)c1ccc(-c2cnc(F)c(NCc3cccs3)n2)cc1	4.626
Cn1cc(CNc2cncc(-c3ccc(S(C)(=O)=O)cc3)n2)cn1	4.8121
CS(=O)(=O)c1ccc(-c2cccc(/C=C/c3ccoc3)n2)cc1	1.724

---

target: human recombinant COX2 (hCOX2) (UniProt P35354); assay: LCMS-based COX2 enzymatic inhibition assay (PGE2 quantification); type: biochemical; parameters: COX2 2 minutes pge2/pge2d4 area ratio Avg; other: 2 minutes; readout pge2/pge2d4 area ratio; average; COX2 2 minutes pge2/pge2d4 area ratio Avg; LLE; average LLE; COX2 2 minutes pge2 area (counts) Avg; readout pge2 area (counts); other: 2 min; "ovine COX2 (oCOX2), human recombinant COX2 (hCOX2)"; conditions: 2 minutes; readout pge2/pge2d4 area ratio; average; read-out: COX2 2 minutes pge2/pge2d4 area ratio Avg. IC50
pIC50: −log10 of the molar value.
The following ranges of pIC50 define the classes used here: bottom bin = under 6, middle bin = from 6 up to 7, top bin = 7 and over

Compound	Tested system	Answer label
CS(=O)(=O)c1ccc(-c2cccc(/C=C\c3ccoc3)n2)cc1	human recombinant COX2 (hCOX2) (UniProt P35354)	top bin
CS(=O)(=O)c1ccc(-c2cncc(CCc3cccs3)n2)cc1	human recombinant COX2 (hCOX2) (UniProt P35354)	bottom bin
CS(=O)(=O)c1ccc(-n2ccc3ccc(Nc4cccnc4)nc32)cc1	human recombinant COX2 (hCOX2) (UniProt P35354)	bottom bin
CS(=O)(=O)c1ccc(-c2cccc(NCc3ccoc3)n2)cc1	human recombinant COX2 (hCOX2) (UniProt P35354)	top bin
CS(=O)(=O)c1ccc(-c2cc(NCc3ccco3)ccn2)cc1	human recombinant COX2 (hCOX2) (UniProt P35354)	bottom bin
CS(=O)(=O)c1ccc(-c2cccc(NCc3cccs3)n2)cc1	human recombinant COX2 (hCOX2) (UniProt P35354)	top bin
COc1ncc(NCc2ccno2)nc1-c1ccc(S(C)(=O)=O)cc1	human recombinant COX2 (hCOX2) (UniProt P35354)	middle bin
CS(=O)(=O)c1ccc(-c2cccc(C3CC3c3ccoc3)n2)cc1 (single isomer, unassigned) [Compound 177]	human recombinant COX2 (hCOX2) (UniProt P35354)	middle bin
COc1ncc(OCc2cccs2)nc1-c1ccc(S(C)(=O)=O)cc1	human recombinant COX2 (hCOX2) (UniProt P35354)	top bin
CS(=O)(=O)c1ccc(-c2cccc(OCc3ccsc3)n2)cc1	human recombinant COX2 (hCOX2) (UniProt P35354)	top bin
COc1ncc(NCc2ccco2)nc1-c1ccc(S(C)(=O)=O)cc1	human recombinant COX2 (hCOX2) (UniProt P35354)	top bin
CS(=O)(=O)c1ccc(-c2cncc(/C=C\c3cccs3)n2)cc1	human recombinant COX2 (hCOX2) (UniProt P35354)	top bin
CC(=O)c1ncc(NCc2cccs2)nc1-c1ccc(S(C)(=O)=O)cc1	human recombinant COX2 (hCOX2) (UniProt P35354)	bottom bin
COc1cc(S(C)(=O)=O)ccc1-c1cncc(NCc2cccs2)n1	human recombinant COX2 (hCOX2) (UniProt P35354)	middle bin
CS(=O)(=O)c1ccc(-c2cnc(C(=O)O)c(NCc3cccs3)n2)cc1	human recombinant COX2 (hCOX2) (UniProt P35354)	bottom bin
COc1ncc(NCc2cncs2)nc1-c1ccc(S(C)(=O)=O)cc1	human recombinant COX2 (hCOX2) (UniProt P35354)	middle bin
CS(=O)(=O)c1ccc(-c2coc3ccc(NCc4cccs4)nc23)cc1	human recombinant COX2 (hCOX2) (UniProt P35354)	top bin
CS(=O)(=O)c1ccc(-c2cccc(OCc3cccs3)n2)nc1	human recombinant COX2 (hCOX2) (UniProt P35354)	top bin
